# assay-info: compound binding in COS7 lysate, probe aLAP1, primary screen, cell lysate, small-molecule microarray (AID 1124);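 further: lysate comes from COS7 cells expressing LAP1 and is applied at 0.3 µg/mL; score merges spot fluorescence near 667 nm with signal-to-noise over triplicate slides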
# recorded-conditions: probe aLAP1, fluorescence, higher = more signal
The threshold is inclusive: composite z-score of exactly 0.5 counts as Yes; values below receive No.

# count of solved cases: 5
compound | qualitative-label
C[C@H]1COC(=O)[C@@H]2CCCN2C(=O)[C@@H](C)COC(=O)[C@@H]2CCCN2C1=O | No
CC(=O)NCCCC[C@@H]1NC(=O)[C@H]2C[C@@H](C(=O)NCCCCCCN(C)C)[C@@H](c3ccc(O)cc3)N2C1=O | No
C=CCNC(=O)[C@H]1[C@@H]2C(=O)O[C@@H](c3ccccc3)[C@@H](c3ccccc3)N2[C@@H](c2ccccc2OCCO)[C@]12C(=O)N(C(=O)OCCOC)c1ccc(C#CCNC(N)=O)cc12 | Yes
C=CCC(OC(C)=O)[C@@H]1[C@@H](N(Cc2ccc(-c3cccc(C(F)(F)F)c3)o2)C(=O)Cc2ccc(F)cc2)c2cc(OCCCO)ccc2N1C(=O)c1ccc(-c2ccccc2)cc1 (some centres not stated) | No
COC(=O)[C@@]1(Cc2ccccc2CN=[N+]=[N-])N=C(c2ccc(OCCCO)cc2)O[C@H]1c1ccccc1N=[N+]=[N-] | No

Data request: Hi, just wondering whether COC(=O)C1=C(C)N(Cc2ccccc2)c2c(C(=O)OC)c(C(=O)OC)c(C(=O)OC)c(=O)n2[C@@H]1c1ccccc1 shows composite z-score of 0.5 or higher.
Data returned: Yes

Data request: Hi, just wondering whether CO[C@H]1O[C@H](CO)[C@@H](OC(=O)Nc2ccc(Oc3ccccc3)cc2)[C@H](OC(=O)Nc2ccccc2-c2ccccc2)[C@H]1OC(=O)Nc1ccccc1-c1ccccc1 shows composite z-score of 0.5 or higher.
Data returned: Yes

Data request: Hi, just wondering whether COCCOC(=O)N1C(=O)[C@@]2(c3cc(C#CCCO)ccc31)[C@H](c1ccc(O)cc1)N1[C@H](c3ccccc3)[C@H](c3ccccc3)OC(=O)[C@H]1[C@@H]2C(=O)Nc1nc2ccccc2s1 shows composite z-score of 0.5 or higher.
Data returned: No

Data request: Hi, just wondering whether CCOC(=O)C1=CCC(c2cccc3ccccc23)N(S(=O)(=O)c2ccc(C)cc2)C1 (configuration not stated) shows composite z-score of 0.5 or higher.
Data returned: No

Data request: Hi, just wondering whether CCCCCCc1nc(-c2cc(C)c(OC)c(C)c2)cc2c1[Si](C(C)C)(C(C)C)O[C@H]2c1ccccc1 shows composite z-score of 0.5 or higher.
Data returned: No

* * *

composite z-score reference
# assay-info: binders of probe aFGF10 on microarray, primary screen, stem cell growth factor project, biochemical, small-molecule microarray, fluorescence 635/667 (AID 1071);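 further: score merges 667 nm spot intensity and signal to noise from triplicate slides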
# recorded-conditions: higher = more signal
API note: the answer field is a bare number with no unit suffix.

# example entries with known answers
compound | recorded-endpoint | measurement
COc1cc2c(cc1OC)CN(C(=O)[C@@H]1[C@H]3C(=O)O[C@H](c4ccccc4)[C@H](c4ccccc4)N3[C@H](c3ccccc3OCCO)[C@@]13C(=O)Nc1ccccc13)CC2 | composite z-score | 0.575
O=C1c2ccccc2[C@](Cc2ccccc2I)(C(=O)O)[C@H](c2ccc(CO)cc2)N1C1CCCCC1 | composite z-score | 1.06
CO[C@H]1COC(=O)[C@H](C)NC(=O)CC=C[C@@H](C)[C@H](NS(=O)(=O)c2ccc(C)cc2)COC(=O)CC=C[C@@H]1C | composite z-score | 0.0871
C=CC[C@@]1(C(=O)NCC(O)CO)N=C(c2ccc(OCCCO)cc2)O[C@@H]1c1ccccc1CN=[N+]=[N-] (some centres not stated) | composite z-score | -0.355

Data request: Need composite z-score of NC(=O)NCC#Cc1ccc2c(c1)[C@]1(C(=O)N2)[C@H](C(=O)N2CCCCCCC2)[C@H]2C(=O)O[C@H](c3ccccc3)[C@H](c3ccccc3)N2[C@@H]1c1ccccc1OCCO , thanks.
Data returned: 0.921

Data request: Need composite z-score of CC(=O)NCCCC[C@@H]1NC(=O)[C@@H]2C[C@H](C(=O)NCCCCCCN(C)C)[C@H](c3ccc(O)cc3)N2C1=O , thanks.
Data returned: 1.19

Data request: Need composite z-score of COC(=O)Cn1c(C(=O)N2CCCC2)cc2c1C[C@H]1CN(C(=O)c3ccccc3)[C@@](Cc3ccc(OC)cc3)(C(=O)OC)[C@@H]21 , thanks.
Data returned: 0.495

* * *

# assay-info: modulators of HCV replicon luciferase signal, primary screen, HCV replication inhibitor project, Huh7 cells, luciferase reporter (AID 1109);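 further: huh7 hepatoma cells harbouring a luciferase neomycin HCV replicon reporter; luciferase luminescence as measure of HCV replicon replication; test concentration not given here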
# recorded-conditions: 48 h, higher = more signal
The threshold is inclusive: z-score of exactly -0.8 counts as Condition met; values below receive Condition not met.

# count of solved cases: 5
compound | qualitative-label
C=C(COC)/C(=C/C[C@H](OC(C)=O)c1ccc(OCCO)cc1)c1cnc2ccccc2c1 | Condition met
COC(=O)[C@@]1(Cc2ccc(OC)cc2)[C@H]2c3cc(C(=O)N(C)C)n(Cc4ccc(C)c(F)c4F)c3C[C@H]2CN1C(=O)c1ccccc1 | Condition not met
COc1cccc([C@@H]2[C@@H](C)CC[C@H]3C(=O)N4[C@H](c5cccc(OC)c5)[C@@H](C)CC[C@H]4C(=O)N23)c1 | Condition met
CC(C)(C)OC(=O)CC[C@]1(C(=O)NCCN2CCOCC2)N=C(c2ccc(OCCCO)cc2)O[C@H]1c1ccccc1CN=[N+]=[N-] | Condition not met
CO[C@H]1O[C@H](CO)[C@@H](OC(=O)CCc2ccccc2)[C@@H]2OC(=O)[C@H](Cc3cccc(Br)c3)C/C=C/C[C@@H](Cc3cccc(Br)c3)C(=O)O[C@@H]12 | Condition not met

Please examine the following record next.
Data request: Hi, just wondering whether [N-]=[N+]=NCc1ccccc1[C@H]1OC(c2ccc(OCCCO)cc2)=N[C@@]1(Cc1ccccc1N=[N+]=[N-])C(=O)NCc1ccccc1 shows z-score of -0.8 or higher.
Data returned: Condition not met

* * *

# assay-info: basal HepG2 mitochondrial membrane potential changes, profiling panel, cell-based, JC-1 fluorescence, 24 h, 100 nL compound (AID 1167); further: test concentration not given here
# recorded-conditions: higher = more signal
The threshold is inclusive: z-score of exactly 0.6 counts as 1.0; values below receive 0.0.

compound | qualitative-label
CC(C)(C)OC(=O)CC[C@]1(C(=O)N2CCCCC2)N=C(c2ccc(OCCCO)cc2)O[C@H]1c1ccccc1 | 1.0

Data request: Hi, just wondering whether CN1C(=O)C2C=CC(C(O)c3ccc(N(C)C)cc3)N(Nc3ccc([N+](=O)[O-])cc3[N+](=O)[O-])C2C1=O (stereo not drawn) shows z-score of 0.6 or higher.
Data returned: 0.0

Data request: Hi, just wondering whether O=C/C=C/c1ccccc1Cl shows z-score of 0.6 or higher.
Data returned: 1.0

Data request: Hi, just wondering whether C[C@]1(C(=O)NCc2ccccc2)c2ccccc2C(=O)N(Cc2cc(C(F)(F)F)cc(C(F)(F)F)c2)[C@H]1c1ccc(CO)cc1 shows z-score of 0.6 or higher.
Data returned: 1.0

Data request: Hi, just wondering whether O=C1OCC=C[C@H]2OC34C=CCN(Cc5ccccc5)C(=O)[C@H]3N(CCO)C(=O)[C@@H]4[C@@H]12 (stereo partly drawn) shows z-score of 0.6 or higher.
Data returned: 0.0

Data request: Hi, just wondering whether C=C(COC)C(=O)CC[C@H](OC(=O)c1ccccc1-c1ccccc1C(=O)O)c1cccc(OCCO)c1 shows z-score of 0.6 or higher.
Data returned: 0.0

Data request: Hi, just wondering whether O=C1C2C=CC(C(O)C(c3ccccc3)c3ccccc3)N(Nc3ccc([N+](=O)[O-])cc3)C2C(=O)N1c1ccccc1 (stereo not drawn) shows z-score of 0.6 or higher.
Data returned: 0.0

Data request: Hi, just wondering whether CCC(=O)[C@]12O[C@@]3([C@@H]4C(=O)OCC[C@@H]41)N(Cc1ccccc1)C(C)=C(C(=O)OC)[C@@H](c1ccccc1)N3C2=O shows z-score of 0.6 or higher.
Data returned: 0.0

* * *

z-score reference
# assay-info: E. coli acrAB mutant growth effects, primary screen, E. coli filamentation inducers, strain DRC39, OD650, 48 h (AID 1179);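 further: screen aims at cell division blockers that make cells filament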
# recorded-conditions: E. coli DRC39 delta-acrAB growth, higher = more signal, called active from +8 up or from −8 down
API note: the answer field is a bare number with no unit suffix.

# example entries with known answers
structure-string | z-score
Cc1ccc(S(=O)(=O)c2cc3oc2CC[C@@H](CO)NC(=O)N(C)Cc2cn(nn2)C[C@H](Cc2ccccc2)NC3=O)cc1 | 1.3
O=C1c2ccccc2[C@](Cc2ccccc2I)(C(=O)O)[C@H](c2ccc(CO)cc2)N1C1CCCCC1 | 0.832
COCCCNC(=O)[C@@]1(c2ccc([N+](=O)[O-])cc2)CC(=O)N(C2CCCCC2)[C@@H]1c1ccc(CO)cc1 | -0.346

Let us examine a further case.
Data request: Need z-score of C=C(/C(=C/C[C@@H](OC(=O)c1ccncc1)c1ccc(CO)o1)c1cnc2ccccc2c1)C(C)C , thanks.
Data returned: 0.811

The origin of these recorded values is PubChem BioAssay.
